// reported ELISA signal relative to background for each item listed
Molecular target: T1, FX activation peptide 12-mer PFDLLDFNQTQP (human)
T1 peptide: PFDLLDFNQTQP-biotin
Test: peptide ELISA
Ends that are not written are not given here.
// no unit, no text: just the number

binder: Nb 501A02 (VHH, monovalent control Nanobody; also called control Nanobody; not shown: C-terminal FLAG3 and HIS6 tag) VHH: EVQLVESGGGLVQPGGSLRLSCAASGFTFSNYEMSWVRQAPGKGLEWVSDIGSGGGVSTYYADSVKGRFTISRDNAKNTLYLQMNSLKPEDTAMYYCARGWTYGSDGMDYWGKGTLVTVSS
ELISA signal relative to background: 0.79
//
binder: Nb 701B09 (VHH, monovalent Nanobody; also called Nb 701609; not shown: C-terminal FLAG3 and HIS6 tag) VHH: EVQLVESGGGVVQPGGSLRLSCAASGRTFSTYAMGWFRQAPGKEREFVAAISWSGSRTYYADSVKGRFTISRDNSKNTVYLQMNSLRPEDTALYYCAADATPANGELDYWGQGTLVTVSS
ELISA signal relative to background: 3.48
//
binder: Nb 729C08 (VHH, monovalent Nanobody; also called Nb 729008; not shown: C-terminal FLAG3 and HIS6 tag) VHH: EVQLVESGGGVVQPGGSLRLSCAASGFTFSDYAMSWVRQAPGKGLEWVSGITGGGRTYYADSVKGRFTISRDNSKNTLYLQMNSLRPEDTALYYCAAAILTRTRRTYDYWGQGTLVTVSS
ELISA signal relative to background: 1.18
//
binder: Nb 702C12 (VHH, monovalent Nanobody; not shown: C-terminal FLAG3 and HIS6 tag) VHH: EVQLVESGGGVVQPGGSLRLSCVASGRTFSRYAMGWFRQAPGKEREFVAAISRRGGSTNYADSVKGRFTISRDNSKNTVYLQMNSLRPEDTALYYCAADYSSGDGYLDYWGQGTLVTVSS
ELISA signal relative to background: 4.95

Turning to the following binder.
[in] // returns reported ELISA signal relative to background for input Nb 730C03 (VHH, monovalent Nanobody; also called Nb 730003; not shown: C-terminal FLAG3 and HIS6 tag) VHH: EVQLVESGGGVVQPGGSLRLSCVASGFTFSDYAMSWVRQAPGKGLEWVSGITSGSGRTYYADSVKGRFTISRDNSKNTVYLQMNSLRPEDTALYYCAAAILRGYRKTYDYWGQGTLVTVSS
[out] 1.23
